target: Androgen Receptor (AR) protein (Homo sapiens, UniProt P10275, T878A); construct: endogenous in cells; host or cells: LNCaP; experiment: Androgen Receptor (AR) protein degradation assay in LNCaP cells, western blotting; type: cell-based; details: 20 h, 0.1 μM compound
Sequence (P10275 whole entry T878A): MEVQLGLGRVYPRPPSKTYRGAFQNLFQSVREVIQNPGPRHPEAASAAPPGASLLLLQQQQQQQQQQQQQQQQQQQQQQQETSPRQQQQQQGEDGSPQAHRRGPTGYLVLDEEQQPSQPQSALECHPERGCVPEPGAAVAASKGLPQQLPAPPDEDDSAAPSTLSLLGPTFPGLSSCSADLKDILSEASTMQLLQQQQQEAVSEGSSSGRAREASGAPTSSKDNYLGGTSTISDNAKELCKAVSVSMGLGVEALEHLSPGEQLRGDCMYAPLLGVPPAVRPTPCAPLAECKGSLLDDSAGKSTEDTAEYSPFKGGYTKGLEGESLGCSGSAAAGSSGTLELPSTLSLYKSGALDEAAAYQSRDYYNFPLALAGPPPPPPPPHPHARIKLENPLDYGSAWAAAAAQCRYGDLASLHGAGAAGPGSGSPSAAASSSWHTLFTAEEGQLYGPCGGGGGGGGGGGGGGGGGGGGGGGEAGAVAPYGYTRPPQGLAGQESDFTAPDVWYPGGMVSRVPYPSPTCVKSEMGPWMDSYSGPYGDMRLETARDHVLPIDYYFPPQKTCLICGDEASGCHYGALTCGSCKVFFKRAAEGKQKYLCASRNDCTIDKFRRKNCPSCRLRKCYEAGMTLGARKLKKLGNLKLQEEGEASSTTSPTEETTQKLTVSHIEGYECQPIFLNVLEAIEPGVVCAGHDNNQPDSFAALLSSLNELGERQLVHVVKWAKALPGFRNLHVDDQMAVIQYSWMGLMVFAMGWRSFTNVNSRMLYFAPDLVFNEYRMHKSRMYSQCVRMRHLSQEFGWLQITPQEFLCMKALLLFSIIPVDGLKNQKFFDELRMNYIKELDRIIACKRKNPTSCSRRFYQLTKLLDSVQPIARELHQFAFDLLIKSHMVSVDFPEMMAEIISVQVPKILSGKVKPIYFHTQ
Sequence (Q96SW2 whole entry partner): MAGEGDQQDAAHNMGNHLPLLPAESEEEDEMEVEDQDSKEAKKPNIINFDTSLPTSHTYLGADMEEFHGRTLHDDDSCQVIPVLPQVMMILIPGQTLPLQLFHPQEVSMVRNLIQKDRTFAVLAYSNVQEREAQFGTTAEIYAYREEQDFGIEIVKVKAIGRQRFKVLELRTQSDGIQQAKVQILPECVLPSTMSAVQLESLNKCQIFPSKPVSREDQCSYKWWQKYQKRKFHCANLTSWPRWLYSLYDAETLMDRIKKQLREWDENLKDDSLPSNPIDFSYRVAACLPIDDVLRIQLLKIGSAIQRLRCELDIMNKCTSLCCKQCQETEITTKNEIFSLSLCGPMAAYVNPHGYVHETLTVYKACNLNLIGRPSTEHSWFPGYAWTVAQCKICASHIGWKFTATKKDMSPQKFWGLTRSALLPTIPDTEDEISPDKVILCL
Collected inhibition at 0.1 µM values appear next to each entry.
Reply numerically in %, unit not repeated.

| MOLECULE | SYSTEM | inhibition at 0.1 µM / % |
| --- | --- | --- |
| N#Cc1ccc(N2CCC(C(=O)Nc3ccc(CN4CCC(CN5CCN(c6cc7c(cc6F)C(=O)N(C6CCC(=O)NC6=O)C7=O)CC5)CC4)cn3)CC2)cc1C(F)(F)F (centres unmarked) | Androgen Receptor (AR) protein (Homo sapiens, UniProt P10275, T878A) | 45 |
| N#Cc1ccc(N2CCC(C(=O)Nc3ncc(N4CCC(CN5CCN(C[C@H]6CCN(c7ccc8c(c7)C(=O)N(C7CCC(=O)NC7=O)C8=O)C6)CC5)CC4)cn3)CC2)cc1C(F)(F)F (some centres unmarked) | Androgen Receptor (AR) protein (Homo sapiens, UniProt P10275, T878A) | 27 |
| N#Cc1ccc(N2CCC(C(=O)Nc3ccc(N4CCN(CCCCOc5ccc6c(c5)C(=O)N(C5CCC(=O)NC5=O)C6=O)CC4)cn3)CC2)cc1C(F)(F)F (centres unmarked) | Androgen Receptor (AR) protein (Homo sapiens, UniProt P10275, T878A) | 89 |
| N#Cc1ccc(N2CCC(C(=O)Nc3ccc(N4CCC(C(=O)N5CC6(CCN(c7ccc8c(c7)C(=O)N(C7CCC(=O)NC7=O)C8=O)CC6)C5)CC4)cn3)CC2)cc1C(F)(F)F (centres unmarked) | Androgen Receptor (AR) protein (Homo sapiens, UniProt P10275, T878A) | 86 |
| C[C@H]1CN(C2CCN(c3ccc4c(n3)CN(C3CCC(=O)NC3=O)C4=O)CC2)CCN1CC1CCN(c2ccc(NC(=O)C3CCN(c4ccc(C#N)c(C(F)(F)F)c4)CC3)nc2)CC1 (some centres unmarked) | Androgen Receptor (AR) protein (Homo sapiens, UniProt P10275, T878A) | 95 |
| N#Cc1ccc(N2CCC(F)(C(=O)Nc3ccc(N4CCC(CN5CCN(CC6CCN(c7ccc8c(c7)CN(C7CCC(=O)NC7=O)C8=O)CC6)CC5)CC4)cn3)CC2)cc1C(F)(F)F (centres unmarked) | Androgen Receptor (AR) protein (Homo sapiens, UniProt P10275, T878A) | 84 |
| N#Cc1ccc(N2CCC(C(=O)Nc3ccc(N4CCN(C(=O)CCCCCNc5ccc6c(c5)C(=O)N(C5CCC(=O)NC5=O)C6=O)CC4)cn3)CC2)cc1C(F)(F)F (centres unmarked) | Androgen Receptor (AR) protein (Homo sapiens, UniProt P10275, T878A) | 70 |
| N#Cc1ccc(N2CCC(C(=O)Nc3ccc(N4CCC5(CC4)CN(CC4CN(c6ccc7c(c6)C(=O)N(C6CCC(=O)NC6=O)C7=O)C4)C5)cn3)CC2)cc1C(F)(F)F (centres unmarked) | Androgen Receptor (AR) protein (Homo sapiens, UniProt P10275, T878A) | 43 |

Lookup: # get_value(readout='inhibition at 0.1 µM', item= N#Cc1ccc(N2CCC(C(=O)Nc3ccc(N4CC(CN5CCN(CC6CN(c7ccc8c(c7)C(=O)N(C7CCC(=O)NC7=O)C8=O)C6)CC5)C4)cn3)CC2)cc1C(F)(F)F (centres unmarked) )
Found: 99

Lookup: // lookup inhibition at 0.1 µM for N#Cc1ccc(N2CCC(C(=O)Nc3ccc(N4CCC(CN5CCN(C6CN(c7ccc8c(n7)CN(C7CCC(=O)NC7=O)C8=O)C6)CC5)CC4)cn3)CC2)cc1C(F)(F)F (centres unmarked)
Found: 90

Lookup: Fill blank: measured inhibition at 0.1 µM of the molecule N#Cc1ccc(N2CCC(C(=O)Nc3ccc(N4CCC(CCN5CCN(c6ccc7c(n6)CN(C6CCC(=O)NC6=O)C7=O)CC5)CC4)cn3)CC2)cc1C(F)(F)F (centres unmarked) is ____.
Found: 67

Lookup: Look at this molecule and give its reported inhibition at 0.1 µM. N#Cc1ccc(N2CCC(C(=O)Nc3ccc(OCCN4CCN(CC5CCN(c6ccc7c(c6)C(=O)N(C6CCC(=O)NC6=O)C7=O)CC5)CC4)cn3)CC2)cc1C(F)(F)F (centres unmarked)
Found: 97

Lookup: Name the recorded inhibition at 0.1 µM for CC1(CN2CCC(COc3ccc(NC(=O)C4CCN(c5ccc(C#N)c(C(F)(F)F)c5)CC4)nc3)CC2)CN(c2ccc3c(c2)C(=O)N(C2CCC(=O)NC2=O)C3=O)C1 (centres unmarked) .
Found: 91

Lookup: For the molecule shown here, N#Cc1ccc(N2CCC(C(=O)Nc3ccc(N4CCC(CN5CCN(C[C@H]6CCN(c7cc8c(cc7F)C(=O)N(C7CCC(=O)NC7=O)C8=O)C6)CC5)CC4)cn3)CC2)cc1C(F)(F)F (some centres unmarked) , give the reported inhibition at 0.1 µM.
Found: 93

Lookup: Request the reported inhibition at 0.1 µM associated with N#Cc1ccc(N2CCC(C(=O)Nc3ncc(N4CCC(CN5CCN(C[C@H]6CCN(c7cc8c(cc7F)C(=O)N(C7CCC(=O)NC7=O)C8=O)C6)CC5)CC4)cn3)CC2)cc1C(F)(F)F (some centres unmarked)
Found: 4

Lookup: Reported inhibition at 0.1 µM for C[C@H]1CN(CC2CCN(c3ccc(C(=O)NC4CCC(=O)NC4=O)nc3)CC2)CCN1CC1CCN(c2ccc(NC(=O)C3CCN(c4ccc(C#N)c(C(F)(F)F)c4)CC3)nc2)CC1 (some centres unmarked) : what is it?
Found: 82

Lookup: Entry under review: N#Cc1ccc(N2CCC(C(=O)Nc3ccc(N4CCC(CN5CC6(C5)CN(c5ccc7c(c5)C(=O)N(C5CCC(=O)NC5=O)C7=O)C6)CC4)cn3)CC2)cc1C(F)(F)F (centres unmarked) . Reported inhibition at 0.1 µM?
Found: 95.5

Lookup: For N#Cc1ccc(N2CCC(C(=O)Nc3ccc(N4CC(CN5CCN(CC6CCN(c7ccc8c(c7)C(=O)N(C7CCC(=O)NC7=O)C8=O)CC6)CC5)C4)cn3)CC2)cc1C(F)(F)F (centres unmarked) , what is its reported inhibition at 0.1 µM?
Found: 97

Lookup: Given N#Cc1ccc(N2CCC(C(=O)Nc3ccc(N4CCC(CN5CCN(CC6CCN(c7ccc8c(c7)C(=O)N(C7CCC(=O)NC7=O)C8=O)CC6)CC5)CC4)cn3)CC2)cc1Cl (centres unmarked) , state its recorded inhibition at 0.1 µM.
Found: 99

Lookup: Which inhibition at 0.1 µM is reported for this molecule? N#Cc1ccc(N2CCC(C(=O)Nc3ccc(N4CCC(CN5CC6(CCN(c7ccc8c(c7)C(=O)N(C7CCC(=O)NC7=O)C8=O)CC6)C5)CC4)cn3)CC2)cc1C(F)(F)F (centres unmarked)
Found: 98
